Target: T1, human GITR (amino acids M1-V241, NCBI Accession #NP_004186.1) expressed on cells (human, UniProt Q9Y5U5 26-241)
T1 sequence: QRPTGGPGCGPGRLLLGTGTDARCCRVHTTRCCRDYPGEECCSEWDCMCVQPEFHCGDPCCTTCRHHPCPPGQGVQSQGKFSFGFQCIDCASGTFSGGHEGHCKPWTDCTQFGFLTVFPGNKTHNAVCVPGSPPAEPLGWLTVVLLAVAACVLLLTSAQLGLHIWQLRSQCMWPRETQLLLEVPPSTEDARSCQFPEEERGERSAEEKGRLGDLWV
Test: cell-based or functional assay
reported-property: fold activation, T-cell proliferation, plate-bound Ab 10.6 nM, donor 4 (fold)

binder	test-value
H4H14521P (antibody, human IgG4, V domains shown, human IgG4 (H4H)) VH: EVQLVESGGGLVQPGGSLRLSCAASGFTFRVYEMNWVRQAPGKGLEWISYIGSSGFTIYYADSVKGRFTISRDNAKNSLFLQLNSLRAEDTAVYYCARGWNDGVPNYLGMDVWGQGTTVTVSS VL: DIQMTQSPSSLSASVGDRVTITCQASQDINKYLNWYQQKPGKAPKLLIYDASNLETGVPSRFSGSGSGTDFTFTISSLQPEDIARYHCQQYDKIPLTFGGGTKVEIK	5
